Data origin, for the record: patent EP2975033A1

SYSTEM: cruzain (CR) (Trypanosoma cruzi)
Sequence (P25779 123-467): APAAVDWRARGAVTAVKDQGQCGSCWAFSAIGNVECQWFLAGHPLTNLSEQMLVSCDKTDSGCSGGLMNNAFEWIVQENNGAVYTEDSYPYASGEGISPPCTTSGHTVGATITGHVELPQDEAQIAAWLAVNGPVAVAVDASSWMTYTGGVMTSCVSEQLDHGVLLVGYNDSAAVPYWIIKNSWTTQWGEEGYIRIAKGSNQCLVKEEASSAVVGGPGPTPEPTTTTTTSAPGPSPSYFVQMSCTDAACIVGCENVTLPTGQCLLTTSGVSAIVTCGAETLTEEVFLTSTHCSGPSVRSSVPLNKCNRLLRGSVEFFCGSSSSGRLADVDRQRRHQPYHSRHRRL
ASSAY_TEXT: In vitro inhibition of cruzain, fluorescence of Z-Phe-Arg-AMC breakdown
Type: biochemical
Classification field: enter rule met for CR(K2nd(M-1s-1)) values not below 60000 M⁻¹ s⁻¹, rule not met for values below it.

Solved entries:
| ITEM_SMILES | LABEL_CLASS |
| --- | --- |
| CCOC(=O)/C=C/C(=O)[C@H](C)NC(=O)[C@H](Cc1ccccc1)NC(=O)OCc1ccccc1 | rule met |
| CCOC(=O)/C=C/C(=O)[C@H](CC(C)C)NC(=O)[C@H](Cc1ccccc1)NC(=O)OCc1ccccc1 | rule met |

Prompt: Given CCOC(=O)/C=C/C(=O)[C@H](C)NC(=O)[C@H](CC(C)C)NC(=O)OCc1ccccc1 , state whether its CR(K2nd(M-1s-1)) is at least 60000 M⁻¹ s⁻¹.
Response: rule not met

Prompt: Is reported CR(K2nd(M-1s-1)) greater than or equal to 60000 M⁻¹ s⁻¹ here: CCOC(=O)/C=C/[C@@H](O)[C@H](CCc1ccccc1)NC(=O)[C@H](Cc1ccccc1)NC(=O)N1CCOCC1
Response: rule not met

Prompt: Given the entry CC(C)C[C@H](NC(=O)[C@H](Cc1ccccc1)NC(=O)OCc1ccccc1)C(=O)/C=C/S(=O)(=O)c1ccccc1 , answer whether its CR(K2nd(M-1s-1)) meets or surpasses 60000 M⁻¹ s⁻¹.
Response: rule met
